Each recorded value in this set is attributed to paper PMC6751662.

Let's look at some substances and their measured EC50.
# System Name: NPR-1 (Caenorhabditis elegans)
# Sequence (Q18534 whole entry): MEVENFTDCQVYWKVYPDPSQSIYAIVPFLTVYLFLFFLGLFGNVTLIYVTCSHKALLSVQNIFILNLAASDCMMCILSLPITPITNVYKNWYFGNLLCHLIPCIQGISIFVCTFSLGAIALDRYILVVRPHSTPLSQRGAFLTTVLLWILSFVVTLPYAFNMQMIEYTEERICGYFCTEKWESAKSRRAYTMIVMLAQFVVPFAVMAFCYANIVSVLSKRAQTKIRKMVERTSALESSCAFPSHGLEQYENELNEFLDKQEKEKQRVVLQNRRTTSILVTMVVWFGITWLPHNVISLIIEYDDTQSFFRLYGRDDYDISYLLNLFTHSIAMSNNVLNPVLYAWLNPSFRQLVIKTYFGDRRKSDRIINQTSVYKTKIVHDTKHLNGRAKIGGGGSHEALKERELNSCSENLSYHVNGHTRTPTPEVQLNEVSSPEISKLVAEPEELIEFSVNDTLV
# Test Summary: cAMP reporter gene assay, Gi/o (inhibition of forskolin-induced cAMP), NPR-1
# Format: cell-based, C. elegans
# Set-up: host or cells: HEK293
Ends that are not written are not given here.
Endpoint: EC50 (nM)

# Substance, Endpoint Unit, Observed Value
records = [
    ("ADISTFASAINNAGRLRY-NH2 [FLP-34-1]", "nM", 578),
    ("GLGPRPLRF-NH2 [FLP-21]", "nM", 0.97),
]

----------
# Test system: NPR-6
# Test Summary: IP accumulation assay, chimeric GαΔ6qi4myr, NPR-6
# Format: cell-based, C. elegans
# Stated Conditions: 10 µM peptide, 1 h, HBSS + 20 mM LiCl; HEK293 receptor + GαΔ6qi4myr; HTRF IP-One; mean of >=3 independent experiments (Tables S5 and S8)

# Substance, IP accumulation with GαΔ6qi4myr, NPR-6
data = [
    ("NPENDTPFGTMRF-NH2 [FLP-3-4, C. elegans FMRFamide-like peptide, C-terminally amidated, synthesized by SPPS]", "5.43 x-fold of basal"),
    ("APKPKFIRF-NH2 [FLP-5-1, C. elegans FMRFamide-like peptide, C-terminally amidated, synthesized by SPPS]", "0.98 x-fold of basal"),
    ("ASPSFIRF-NH2 [FLP-4-2, C. elegans FMRFamide-like peptide, C-terminally amidated, synthesized by SPPS]", "1.19 x-fold of basal"),
    ("AGSDPNFLRF-NH2 [FLP-1-2, C. elegans FMRFamide-like peptide, C-terminally amidated, synthesized by SPPS]", "5.19 x-fold of basal"),
]
